Entries and their measured EC50 follow.
testedTarget: 2-5A-dependent ribonuclease (Homo sapiens, UniProt Q05823)
Sequence (Q05823 whole entry): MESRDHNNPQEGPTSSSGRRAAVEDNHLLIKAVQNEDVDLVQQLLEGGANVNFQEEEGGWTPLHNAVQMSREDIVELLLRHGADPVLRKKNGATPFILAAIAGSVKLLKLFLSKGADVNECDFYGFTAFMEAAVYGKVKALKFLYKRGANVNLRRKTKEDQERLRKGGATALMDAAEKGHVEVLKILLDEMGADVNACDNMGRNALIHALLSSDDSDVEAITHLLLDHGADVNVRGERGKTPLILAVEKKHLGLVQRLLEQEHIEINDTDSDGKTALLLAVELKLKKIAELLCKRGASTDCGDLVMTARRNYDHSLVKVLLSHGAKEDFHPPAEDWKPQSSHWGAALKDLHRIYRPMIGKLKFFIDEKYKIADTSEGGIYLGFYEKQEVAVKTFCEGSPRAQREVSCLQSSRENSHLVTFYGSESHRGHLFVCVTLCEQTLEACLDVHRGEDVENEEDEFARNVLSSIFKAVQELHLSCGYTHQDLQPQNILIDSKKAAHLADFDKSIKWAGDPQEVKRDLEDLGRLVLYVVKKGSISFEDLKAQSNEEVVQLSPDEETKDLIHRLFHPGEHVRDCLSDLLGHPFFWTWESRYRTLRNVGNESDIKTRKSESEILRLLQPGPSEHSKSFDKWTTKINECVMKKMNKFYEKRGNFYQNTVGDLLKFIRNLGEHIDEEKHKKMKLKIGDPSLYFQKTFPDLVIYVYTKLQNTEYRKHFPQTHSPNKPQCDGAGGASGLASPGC
protocolNotes: Activation of human RNase L expressed in Escherichia coli BL21 (DE3) cells assessed as RNA cleavage using Cy5-rC11-UU-C7-BHQ2 as substrate by FRET assay

Please review the entries below; each comes with its answer.
>>> reportedresult("Nc1ncnc2c1ncn2[C@@H]1O[C@H](COP(=O)(O)O[C@H]2[C@H](O)[C@@H](COCP(=O)(O)O[C@@H]3[C@H](O)[C@@H](COP(=O)(O)O[C@@H]4[C@H](O)[C@@H](COP(=O)(O)O)O[C@H]4n4cnc5c(N)ncnc54)O[C@H]3n3cnc4c(N)ncnc43)O[C@H]2n2cnc3c(N)ncnc32)[C@@H](O)[C@H]1O")
"> 1 µM"
>>> reportedresult("Nc1ncnc2c1ncn2[C@@H]1O[C@H](COP(=O)(O)O[C@@H]2[C@H](O)[C@@H](COP(=O)(O)CO[C@@H]3[C@@H](O)[C@@H](COP(=O)(O)O[C@@H]4[C@H](O)[C@@H](COP(=O)(O)O)O[C@H]4n4cnc5c(N)ncnc54)O[C@H]3n3cnc4c(N)ncnc43)O[C@H]2n2cnc3c(N)ncnc32)[C@@H](O)[C@H]1O")
"> 1 µM"

### Prompt Supply recorded EC50 for `Nc1ncnc2c1ncn2[C@@H]1O[C@H](COP(=O)(O)O[C@@H]2[C@H](O)[C@@H](COP(=O)(O)CO[C@H]3[C@H](O)[C@@H](COP(=O)(O)O[C@@H]4[C@H](O)[C@@H](COP(=O)(O)O)O[C@H]4n4cnc5c(N)ncnc54)O[C@H]3n3cnc4c(N)ncnc43)O[C@H]2n2cnc3c(N)ncnc32)[C@@H](O)[C@H]1O` here.
### Response > 1 µM
